target: TIP48/TIP49 complex (Homo sapiens, UniProt Q9Y230+Q9Y265); experiment: ATPase assay of TIP48/TIP49 complex (ADP-Glo); conditions: concentration at which the ATPase activity was inhibited by 50%
Sequence (Q9Y230 whole entry): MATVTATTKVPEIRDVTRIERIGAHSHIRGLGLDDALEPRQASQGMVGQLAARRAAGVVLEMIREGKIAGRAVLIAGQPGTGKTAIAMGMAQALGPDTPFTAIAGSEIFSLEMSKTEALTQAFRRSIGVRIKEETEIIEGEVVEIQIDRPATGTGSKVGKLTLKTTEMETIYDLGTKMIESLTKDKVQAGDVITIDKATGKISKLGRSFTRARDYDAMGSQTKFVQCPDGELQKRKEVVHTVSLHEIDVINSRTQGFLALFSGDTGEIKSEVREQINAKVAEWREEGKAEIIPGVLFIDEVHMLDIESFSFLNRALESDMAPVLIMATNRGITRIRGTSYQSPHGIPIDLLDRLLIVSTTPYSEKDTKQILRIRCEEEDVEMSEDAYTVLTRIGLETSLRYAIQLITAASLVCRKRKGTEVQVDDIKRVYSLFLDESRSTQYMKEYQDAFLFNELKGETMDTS
Sequence (Q9Y265 whole entry): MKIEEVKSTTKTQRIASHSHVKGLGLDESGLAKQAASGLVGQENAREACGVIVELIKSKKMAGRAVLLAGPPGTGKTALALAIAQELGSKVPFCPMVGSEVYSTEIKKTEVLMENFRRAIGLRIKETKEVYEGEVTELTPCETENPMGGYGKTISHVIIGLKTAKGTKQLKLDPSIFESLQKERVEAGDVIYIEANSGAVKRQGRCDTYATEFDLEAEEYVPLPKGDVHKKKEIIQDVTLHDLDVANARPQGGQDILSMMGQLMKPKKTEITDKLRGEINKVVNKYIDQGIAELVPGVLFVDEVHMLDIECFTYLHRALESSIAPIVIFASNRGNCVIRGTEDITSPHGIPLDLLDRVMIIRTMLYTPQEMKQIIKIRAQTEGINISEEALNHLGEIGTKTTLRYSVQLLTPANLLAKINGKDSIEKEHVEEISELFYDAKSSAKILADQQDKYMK
readout name: IC50 (nM)

[I] CN(C)CCc1c(NC(=O)CC(C)(C)CNC(=O)c2cc(Cl)cc3c2OCCO3)c(=O)n(-c2ccccc2)n1C [Example 16]
[II] CCOc1ccc(Cl)cc1C(=O)NCC(C)(C)CC(=O)Nc1c(CC(C)(C)N)n(C)n(-c2ccccc2)c1=O [Example 55]
Quick one: lower IC50, I or II ? Mark your selection by writing its label.
II
(II: 43 nM, I: 68 nM)

[a] CCOc1ccc(Cl)cc1C(=O)NCC(C)(C)CC(=O)Nc1c(CCN(C)CC(F)(F)F)n(C)n(-c2ccccc2)c1=O [Example 39]
[b] COCc1c(NC(=O)CC(C)(C)CNC(=O)c2cc(Cl)cc3cc(C)oc23)c(=O)n(-c2ccccc2)n1C [Example 120]
Quick one: lower IC50, a or b ? Mark your selection by writing its label.
b

* * *

system: human lymphoma cell line RAMOS cells; assay: Cell growth inhibition test using RAMOS cell, MTT assay; type: cell-based; settings: 50% growth inhibition concentration
readout name: GI50 (nM)

Sample answers from the record:
compound	readout name	assay value
CCOc1ccc(Cl)cc1NC(=O)CC(C)(O)CC(=O)Nc1c(C)n(C)n(-c2ccccc2)c1=O (stereo not shown) [Example 103]	GI50	1400
COc1ccc(Cl)cc1C(=O)NCC(C)(C)CC(=O)Nc1c(CCN(C)C)n(C)n(-c2ccccc2)c1=O [Example 22]	GI50	460

[1] Cc1cccc(-n2c(=O)c(NC(=O)CC(C)(C)CC(=O)Nc3cc(Cl)ccc3OC(F)(F)F)c(C)n2C)n1 [Example 154]
[2] CCOc1ncc(Cl)cc1C(=O)NCC(C)(C)CC(=O)Nc1c(C)n(C)n(-c2ccccc2)c1=O [Example 95]
Quick one: lower GI50, 1 or 2 ? Mark your selection by writing its label.
1

* * *

test system: human lymphoma cell line RAMOS cells; test: Cell growth inhibition test using RAMOS cell, ATP assay (CellTiter-Glo); format: cell-based; conditions: Homo sapiens, Ramos, 72 h, cultured 3 days, 50% growth inhibition concentration
Counter-ions that a name gives are not always drawn.
readout name: GI50 (nM)

compound	value units	GI50
CCOc1ncc(Cl)cc1C(=O)NCC(C)(C)CC(=O)Nc1c(CCN(C)C)n(CC)n(-c2ccccc2)c1=O	nM	150
CCOc1cc(F)c(Cl)cc1C(=O)NCC(C)(C)CC(=O)Nc1c(C[C@@H](C)N(C)C)n(C)n(-c2ccccc2)c1=O	nM	160
CCOc1ccc(Cl)cc1C(=O)NCC(CF)(CF)CC(=O)Nc1c(CCN(C)C)n(C)n(-c2ccccc2)c1=O	nM	500
Cc1cccc(-n2c(=O)c(NC(=O)CC(C)(C)CNC(=O)c3cc(Cl)cc4cc(C)oc34)c(C)n2C)n1	nM	190
Cc1cc2cc(Cl)cc(C(=O)NCC(C)(C)CC(=O)Nc3c(CCCCN(C)C)n(C)n(-c4ccccc4)c3=O)c2o1	nM	140

[a] CCOc1cc(F)c(Cl)cc1C(=O)NCC(C)(C)CC(=O)Nc1c(CCCN(C)C)n(C)n(-c2ccccc2)c1=O [Example 64, monohydrochloride]
[b] CCOc1ccc(Cl)cc1C(=O)NCC(C)(C)CC(=O)Nc1c(C)n(C)n(-c2cc(OC)ccn2)c1=O
Quick one: lower GI50, a or b ? Mark your selection by writing its label.
a
(a: 190 nM, b: 430 nM)
